# TEST METHOD NOTES: Rat retina pharmacokinetics, single topical 0.25% rifampicin eye drop
# Assay type: in vivo, Sprague–Dawley rats
# CONDITION PARAMETERS: male, Sprague-Dawley, topical or ocular, 15 μL of 0.25% rifampicin eye drop
RECORDED METRIC: Tmax

Just so you know, measured Tmax for CO[C@H]1/C=C/O[C@@]2(C)Oc3c(C)c(O)c4c(O)c(c(/C=N/N5CCN(C)CC5)c(O)c4c3C2=O)NC(=O)/C(C)=C\C=C\[C@H](C)[C@H](O)[C@@H](C)[C@@H](O)[C@@H](C)[C@H](OC(C)=O)[C@@H]1C [Rifampicin] came out at ~1 h
